System: HUVEC/MSC spheroids viability
testDetails: Human HUVEC/MSC cell line growth inhibition [KRAS2];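 note: percent of DMSO vehicle control luminescence so 100% = untreated viability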
conditionSet: second compound 1 µM; first compound 0.003 µM; active compounds read low
experimentalReadout: viability, T/C (%)
Write it as a number; the unit % goes unstated.

molecule	readoutValue
CC(=O)Nc1cccc(-n2c(=O)n(C3CC3)c(=O)c3c(Nc4ccc(I)cc4F)n(C)c(=O)c(C)c32)c1 + COc1cc2nc(C)nc(NC(C)c3cc(N)cc(C(F)(F)F)c3)c2cc1OC1CCOC1	76.7
CC(=O)Nc1cccc(-n2c(=O)n(C3CC3)c(=O)c3c(Nc4ccc(I)cc4F)n(C)c(=O)c(C)c32)c1 + CNCc1ccccc1-c1csc(C(C)Nc2nc(C)nc3cc(OC)c(OC)cc23)c1	84.6
CC(=O)Nc1cccc(-n2c(=O)n(C3CC3)c(=O)c3c(Nc4ccc(I)cc4F)n(C)c(=O)c(C)c32)c1 + CC1OCC2(CCN(c3cnc(Sc4ccnc(N)c4Cl)c(N)n3)CC2)C1N	55.7

Proceed to the following item.
// returns reported viability, T/C for input CC(=O)Nc1cccc(-n2c(=O)n(C3CC3)c(=O)c3c(Nc4ccc(I)cc4F)n(C)c(=O)c(C)c32)c1 + C=CC(=O)N1CCN(c2nc(=O)n(-c3c(C)ccnc3C(C)C)c3nc(-c4c(O)cccc4F)c(F)cc23)C(C)C1
112

###

System: HUVEC/MSC spheroids viability
testDetails: Human HUVEC/MSC cell line growth inhibition [KRAS2];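 note: percent of DMSO vehicle control luminescence so 100% = untreated viability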
conditionSet: second compound 0.1 µM; first compound 0.0003 µM; active compounds read low
experimentalReadout: viability, T/C (%)
Please respond with the number in % and leave the unit unwritten.

// solved cases for viability, T/C follow
compound	unit	viability, T/C
CC(=O)Nc1cccc(-n2c(=O)n(C3CC3)c(=O)c3c(Nc4ccc(I)cc4F)n(C)c(=O)c(C)c32)c1 + CC1OCC2(CCN(c3cnc(Sc4ccnc(N)c4Cl)c(N)n3)CC2)C1N	%	106
CC(=O)Nc1cccc(-n2c(=O)n(C3CC3)c(=O)c3c(Nc4ccc(I)cc4F)n(C)c(=O)c(C)c32)c1 + C=CC(=O)N1CCN(c2nc(=O)n(-c3c(C)ccnc3C(C)C)c3nc(-c4c(O)cccc4F)c(F)cc23)C(C)C1	%	130
CC(=O)Nc1cccc(-n2c(=O)n(C3CC3)c(=O)c3c(Nc4ccc(I)cc4F)n(C)c(=O)c(C)c32)c1 + COc1cc2nc(C)nc(NC(C)c3cc(N)cc(C(F)(F)F)c3)c2cc1OC1CCOC1	%	129

Now examine the next entry.
Any idea what viability, T/C came out for CC(=O)Nc1cccc(-n2c(=O)n(C3CC3)c(=O)c3c(Nc4ccc(I)cc4F)n(C)c(=O)c(C)c32)c1 + CNCc1ccccc1-c1csc(C(C)Nc2nc(C)nc3cc(OC)c(OC)cc23)c1 on HUVEC/MSC spheroids viability?
109

###

System: HUVEC/MSC spheroids viability
testDetails: Human HUVEC/MSC cell line growth inhibition [KRAS2];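 note: percent of DMSO vehicle control luminescence so 100% = untreated viability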
conditionSet: second compound 1 µM; first compound 1 µM; active compounds read low
experimentalReadout: viability, T/C (%)
Entry rule: numbers only, all in %.

compound	unit	viability, T/C
COc1cc(Nc2ncc3c(n2)-c2ccc(Cl)cc2C(c2c(F)cccc2OC)=NC3)ccc1C(=O)O + CNCc1ccccc1-c1csc(C(C)Nc2nc(C)nc3cc(OC)c(OC)cc23)c1	%	74.5
Cn1nccc1Nc1nccc(-c2cc3c(s2)C(C)(C)N(CCN2CCOCC2)C3=O)n1 + CC1OCC2(CCN(c3cnc(Sc4ccnc(N)c4Cl)c(N)n3)CC2)C1N	%	60.7
COc1cc(Nc2ncc3c(n2)-c2ccc(Cl)cc2C(c2c(F)cccc2OC)=NC3)ccc1C(=O)O + COc1cc2nc(C)nc(NC(C)c3cc(N)cc(C(F)(F)F)c3)c2cc1OC1CCOC1	%	106
CCN1CCN(Cc2ccc(Nc3ncc(F)c(-c4cc(F)c5nc(C)n(C(C)C)c5c4)n3)nc2)CC1 + C=CC(=O)N1CCN(c2nc(=O)n(-c3c(C)ccnc3C(C)C)c3nc(-c4c(O)cccc4F)c(F)cc23)C(C)C1	%	133

We next turn to a different compound, shown below.
What value of measured viability, T/C is listed for CC1OCC2(CCN(c3cnc(Sc4ccnc(N)c4Cl)c(N)n3)CC2)C1N (stereo not given) + CNCc1ccccc1-c1csc(C(C)Nc2nc(C)nc3cc(OC)c(OC)cc23)c1 ?
67.4

Every entry's value here was drawn from PubChem BioAssay AID2060912.
